# MEASUREMENT_TARGET: S. aureus AgrC in group-II (Staphylococcus aureus, UniProt O33587)
# Sequence (O33587 entry or part of it): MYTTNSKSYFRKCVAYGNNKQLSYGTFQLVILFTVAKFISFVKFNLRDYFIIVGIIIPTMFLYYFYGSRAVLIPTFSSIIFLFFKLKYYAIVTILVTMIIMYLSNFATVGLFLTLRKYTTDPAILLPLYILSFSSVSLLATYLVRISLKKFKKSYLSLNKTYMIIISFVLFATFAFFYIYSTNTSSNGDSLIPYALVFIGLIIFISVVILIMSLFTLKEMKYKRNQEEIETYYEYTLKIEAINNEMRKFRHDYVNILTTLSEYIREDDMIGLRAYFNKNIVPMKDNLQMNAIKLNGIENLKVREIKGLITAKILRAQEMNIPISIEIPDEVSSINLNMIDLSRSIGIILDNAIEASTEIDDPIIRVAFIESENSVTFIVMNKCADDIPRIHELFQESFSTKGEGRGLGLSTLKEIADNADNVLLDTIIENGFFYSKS
# PROTOCOL_SUMMARY: AgrC inhibition YFP reporter gene assay, S. aureus group-II (AH430)
# Type: cell-based
# DETAILS: read-out: IC50 Group-II; Table 3, against S. aureus AgrC
Positions of bridges follow the written chain, without caps; N, C: chain ends. Non-standard residues stand in square brackets, D forms with d. Residues, ends and D or L forms follow the SMILES beside them. Phe(3-Cl) = N[C@@H](Cc1cccc(Cl)c1)C(=O)O; Phe(4-Cl) = N[C@@H](Cc1ccc(Cl)cc1)C(=O)O; Phe(3-F) = N[C@@H](Cc1cccc(F)c1)C(=O)O; Cha = N[C@@H](CC1CCCCC1)C(=O)O; AEEA = NCCOCCOCC(=O)O; Aoc = NCCCCCCCC(=O)O
Field: label. Allowed values: MET (IC50 < 1000 nM) or NOT MET (IC50 >= 1000 nM).

Hello, I'm reviewing records and need to know if IC50 of CC(=O)N[C@H]1CSC(=O)[C@H](Cc2cccc(F)c2)NC(=O)[C@H](Cc2ccccc2)NC(=O)COCCOCCNC1=O [n7OF3fF] (Ac-C[AEEA]F[Phe(3-F)]; thioester 1-C) is below 1000 nM. Could you check?
NOT MET

Hello, I'm reviewing records and need to know if IC50 of CC(=O)N[C@H]1CSC(=O)[C@H](Cc2cccc(Cl)c2)NC(=O)[C@H](Cc2ccccc2)NC(=O)COCCOCCNC1=O [n7OF3clF] (Ac-C[AEEA]F[Phe(3-Cl)]; thioester 1-C) is below 1000 nM. Could you check?
MET

Hello, I'm reviewing records and need to know if IC50 of CC(=O)N[C@H]1CSC(=O)[C@H](Cc2cccc(F)c2)NC(=O)[C@H](CC2CCCCC2)NC(=O)COCCOCCNC1=O [n7OCha3fF] (Ac-C[AEEA][Cha][Phe(3-F)]; thioester 1-C) is below 1000 nM. Could you check?
NOT MET

Hello, I'm reviewing records and need to know if IC50 of CC(=O)N[C@H]1CSC(=O)[C@H](Cc2ccccc2)NC(=O)[C@H](Cc2ccccc2)NC(=O)COCCOCCNC1=O [n7OFF] (Ac-C[AEEA]FF; thioester 1-C) is below 1000 nM. Could you check?
MET

Hello, I'm reviewing records and need to know if IC50 of CC(=O)N[C@H]1CSC(=O)[C@H](Cc2ccccc2)NC(=O)[C@H](CC2CCCCC2)NC(=O)COCCOCCNC1=O [n7OChaF] (Ac-C[AEEA][Cha]F; thioester 1-C) is below 1000 nM. Could you check?
MET

Hello, I'm reviewing records and need to know if IC50 of CC(=O)N[C@H]1CSC(=O)[C@H](Cc2ccc(Cl)cc2)NC(=O)[C@H](Cc2ccccc2)NC(=O)COCCOCCNC1=O [n7OF4clF] (Ac-C[AEEA]F[Phe(4-Cl)]; thioester 1-C) is below 1000 nM. Could you check?
MET

Hello, I'm reviewing records and need to know if IC50 of CC(=O)N[C@H]1CSC(=O)[C@H](Cc2cccc(F)c2)NC(=O)[C@H](CC2CCCCC2)NC(=O)CCCCCCCNC1=O [n7Cha3fF] (Ac-C[Aoc][Cha][Phe(3-F)]; thioester 1-C) is below 1000 nM. Could you check?
NOT MET
